Assay remarks: self-splicing fitness, log relative to wild type (ln ratio); higher = more splicing; Tetrahymena group I intron in knt gene, E. coli kanamycin selection, DiMSum; sequences stand for … in CUCUCU…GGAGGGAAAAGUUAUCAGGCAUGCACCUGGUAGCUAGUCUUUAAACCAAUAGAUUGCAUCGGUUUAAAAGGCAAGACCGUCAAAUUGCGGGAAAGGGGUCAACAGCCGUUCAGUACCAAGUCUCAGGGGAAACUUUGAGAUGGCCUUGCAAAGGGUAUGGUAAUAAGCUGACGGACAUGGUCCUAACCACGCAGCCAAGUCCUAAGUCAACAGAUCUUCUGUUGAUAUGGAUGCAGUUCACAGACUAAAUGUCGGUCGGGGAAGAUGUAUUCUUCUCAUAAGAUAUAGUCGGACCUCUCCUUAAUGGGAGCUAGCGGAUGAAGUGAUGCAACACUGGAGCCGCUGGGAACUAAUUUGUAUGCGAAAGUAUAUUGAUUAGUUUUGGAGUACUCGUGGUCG;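 note: selection with 25 µg/mL kanamycin versus none on LB agar overnight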
Measurement parameters: 37 °C
Listing of entries alongside the reported self-splicing fitness (ln).
// no unit string in output, number only

{"Chain": "ACACAGCAAUAUUACGCGUU", "self-splicing fitness (ln)": -2.29}
{"Chain": "GCGAAGCAAUAUUACGCAUA", "self-splicing fitness (ln)": -1.76}

Qu. Fill in: self-splicing fitness (ln) of UCAUAGCAAUAUUACGCCCA is ___
Ans. -0.939

Qu. What does the data say about its self-splicing fitness (ln)? Entry: GUACAGCAAUAUUACGUGUA
Ans. -2.32

----------
Assay remarks: self-splicing fitness, log relative to wild type (ln ratio); higher = more splicing; Tetrahymena group I intron in knt gene, E. coli kanamycin selection, DiMSum; sequences stand for … in CUCUCU…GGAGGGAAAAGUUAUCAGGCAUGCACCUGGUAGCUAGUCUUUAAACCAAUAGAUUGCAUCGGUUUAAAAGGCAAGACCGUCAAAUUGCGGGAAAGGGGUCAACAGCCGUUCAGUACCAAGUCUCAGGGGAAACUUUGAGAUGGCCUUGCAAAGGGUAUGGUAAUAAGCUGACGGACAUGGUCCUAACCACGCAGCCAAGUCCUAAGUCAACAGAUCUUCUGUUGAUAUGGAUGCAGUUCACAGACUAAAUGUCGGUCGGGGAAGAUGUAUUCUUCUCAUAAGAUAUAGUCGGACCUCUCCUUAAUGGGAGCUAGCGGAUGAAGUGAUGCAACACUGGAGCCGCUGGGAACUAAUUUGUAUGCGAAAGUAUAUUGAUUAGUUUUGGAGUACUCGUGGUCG
Measurement parameters: 30 °C
Readout: self-splicing fitness (ln)
No unit in the answer, only the number.

{"Chain": "UAAGAGCAAUAUUACGUAGU", "self-splicing fitness (ln)": -3.21}

Qu. # query: self-splicing fitness (ln) of entry CCAAAGCAAUAUUACGACGA
Ans. -3.11

Qu. Entry under review: UCCCAGCAAUAUUACGGACG . Reported self-splicing fitness (ln)?
Ans. -3.93

Qu. Quick one: self-splicing fitness (ln) of ACAGAGCAAUAUUACGAGUC ?
Ans. -4.65

Qu. What does the data say about its self-splicing fitness (ln)? Entry: GCUUAGCAAUAUUACGGGGA
Ans. -1.05

Qu. What does the data say about its self-splicing fitness (ln)? Entry: GACCAGCAAUAUUACGACUA
Ans. -0.158

Qu. Could you share which self-splicing fitness (ln) value was measured for ACGCAGCAAUAUUACGGCUG ?
Ans. -3.03

Qu. Can you share its self-splicing fitness (ln)? I mean this sequence: UACUAGCAAUAUUACGACUU
Ans. -1.27

----------
Assay remarks: self-splicing fitness, log relative to wild type (ln ratio); higher = more splicing; Tetrahymena group I intron in knt gene, E. coli kanamycin selection, DiMSum; sequences stand for … in CUCUCU…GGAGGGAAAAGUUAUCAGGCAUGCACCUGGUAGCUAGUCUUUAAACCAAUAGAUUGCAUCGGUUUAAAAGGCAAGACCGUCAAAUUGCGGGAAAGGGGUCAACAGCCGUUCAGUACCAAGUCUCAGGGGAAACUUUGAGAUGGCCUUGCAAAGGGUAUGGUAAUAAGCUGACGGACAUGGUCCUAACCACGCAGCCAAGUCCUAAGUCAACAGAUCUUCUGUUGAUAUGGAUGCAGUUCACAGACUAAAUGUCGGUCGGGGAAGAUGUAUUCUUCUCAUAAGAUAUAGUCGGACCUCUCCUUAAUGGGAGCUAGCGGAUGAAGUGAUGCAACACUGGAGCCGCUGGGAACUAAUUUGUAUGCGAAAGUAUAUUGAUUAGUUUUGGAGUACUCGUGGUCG
Measurement parameters: 30 °C
Readout: self-splicing fitness (ln)
Keep the answer to the number alone.

Worked examples follow.
{"Chain": "AGCCAGCAAUAUUACGGUGC", "Val": -2.49}
{"Chain": "GCGAAGCAAUAUUACGGGAU", "Val": -3.58}
{"Chain": "UUUCAGCAAUAUUACGGGUG", "Val": -0.316}
{"Chain": "CUUGAGCAAUAUUACGCAGG", "Val": -3.46}
{"Chain": "AGCCAGCAAUAUUACGUCAG", "Val": -3.58}

Qu. Record request: self-splicing fitness (ln) value, item AGUCAGCAAUAUUACGAAGC
Ans. -3.56

Qu. # lookup: self-splicing fitness (ln) of AAACAGCAAUAUUACGGGAC
Ans. -3.74

Qu. Data request, read-out self-splicing fitness (ln), for CGCAAGCAAUAUUACGGGGC
Ans. -3.65

Qu. So what's the measured self-splicing fitness (ln) for this one? ACUAAGCAAUAUUACGCUCA
Ans. -0.894

----------
Assay remarks: self-splicing fitness, log relative to wild type (ln ratio); higher = more splicing; Tetrahymena group I intron in knt gene, E. coli kanamycin selection, DiMSum; sequences stand for … in CUCUCU…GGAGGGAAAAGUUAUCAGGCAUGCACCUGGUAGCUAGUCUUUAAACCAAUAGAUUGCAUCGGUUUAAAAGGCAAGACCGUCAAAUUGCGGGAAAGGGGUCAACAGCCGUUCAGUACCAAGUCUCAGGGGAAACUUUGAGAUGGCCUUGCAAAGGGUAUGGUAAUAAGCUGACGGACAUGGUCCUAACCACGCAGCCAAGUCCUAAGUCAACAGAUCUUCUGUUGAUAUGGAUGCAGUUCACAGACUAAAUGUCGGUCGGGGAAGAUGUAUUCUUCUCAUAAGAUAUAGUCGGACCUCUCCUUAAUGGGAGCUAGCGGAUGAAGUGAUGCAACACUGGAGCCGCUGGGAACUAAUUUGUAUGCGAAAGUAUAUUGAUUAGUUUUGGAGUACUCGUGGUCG
Measurement parameters: 37 °C
Readout: self-splicing fitness (ln)
The response must contain the number and no unit.

// below: answered sequences
{"Chain": "CACAAGCAAUAUUACGGCGA", "self-splicing fitness (ln)": -0.406}
{"Chain": "CGACAGCAAUAUUACGUACC", "self-splicing fitness (ln)": -0.217}
{"Chain": "ACGCAGCAAUAUUACGUACC", "self-splicing fitness (ln)": -0.295}
{"Chain": "CAGAAGCAAUAUUACGAUCU", "self-splicing fitness (ln)": -0.995}
{"Chain": "ACACAGCAAUAUUACGUUAU", "self-splicing fitness (ln)": -2.65}
{"Chain": "UGUGAGCAAUAUUACGUUUA", "self-splicing fitness (ln)": -3.17}
{"Chain": "ACGGAGCAAUAUUACGAUUG", "self-splicing fitness (ln)": -1.43}
{"Chain": "AGGUAGCAAUAUUACGCUGG", "self-splicing fitness (ln)": -2.83}

Qu. Param item = CGAUAGCAAUAUUACGAGGU ; retrieve measured self-splicing fitness (ln).
Ans. -3.01

Qu. Which self-splicing fitness (ln) is reported for this sequence? AUUCAGCAAUAUUACGGAGA
Ans. -0.618

Qu. # input sequence: UAACAGCAAUAUUACGGCCG ; wanted: its self-splicing fitness (ln)
Ans. 0.226

Qu. # get_value(readout='self-splicing fitness (ln)', item= CAGUAGCAAUAUUACGCAAA )
Ans. -3.33

----------
Assay remarks: self-splicing fitness, log relative to wild type (ln ratio); higher = more splicing; Tetrahymena group I intron in knt gene, E. coli kanamycin selection, DiMSum; sequences stand for … in CUCUCU…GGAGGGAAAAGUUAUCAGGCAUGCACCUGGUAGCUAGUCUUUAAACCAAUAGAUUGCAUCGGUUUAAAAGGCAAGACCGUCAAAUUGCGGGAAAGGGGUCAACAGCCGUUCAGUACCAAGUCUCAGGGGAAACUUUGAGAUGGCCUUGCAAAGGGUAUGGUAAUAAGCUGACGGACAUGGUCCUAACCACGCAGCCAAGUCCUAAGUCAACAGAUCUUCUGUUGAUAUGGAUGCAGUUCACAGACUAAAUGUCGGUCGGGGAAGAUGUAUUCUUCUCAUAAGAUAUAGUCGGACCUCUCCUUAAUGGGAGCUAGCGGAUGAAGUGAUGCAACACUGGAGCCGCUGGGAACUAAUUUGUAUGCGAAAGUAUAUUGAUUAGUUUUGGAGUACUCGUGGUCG
Measurement parameters: 30 °C
Given measured self-splicing fitness (ln), output Fulfilled if it is greater than or equal to -2 and Not fulfilled if not.

Recorded results for 7 sequences are shown here.
{"Chain": "UAGAAGCAAUAUUACGUCCA", "Assigned category": "Fulfilled"}
{"Chain": "GCCUAGCAAUAUUACGCGGG", "Assigned category": "Fulfilled"}
{"Chain": "GACCAGCAAUAUUACGGCGG", "Assigned category": "Not fulfilled"}
{"Chain": "GAGUAGCAAUAUUACGUUCG", "Assigned category": "Not fulfilled"}
{"Chain": "GUAAAGCAAUAUUACGGUGU", "Assigned category": "Fulfilled"}
{"Chain": "CGUGAGCAAUAUUACGAAGU", "Assigned category": "Not fulfilled"}
{"Chain": "GCGCAGCAAUAUUACGGCUC", "Assigned category": "Fulfilled"}

Query sequence follows.
Qu. Check this sequence for self-splicing fitness (ln) at or above -2: CCCCAGCAAUAUUACGGUAU
Ans. Not fulfilled

The reported measurements were obtained from the supplement of paper PMC7877785.
